Ki values for UniProt:P35353, compiled from several publications.
Molecular target: UniProt:P35353
Sequence (P35353 whole entry): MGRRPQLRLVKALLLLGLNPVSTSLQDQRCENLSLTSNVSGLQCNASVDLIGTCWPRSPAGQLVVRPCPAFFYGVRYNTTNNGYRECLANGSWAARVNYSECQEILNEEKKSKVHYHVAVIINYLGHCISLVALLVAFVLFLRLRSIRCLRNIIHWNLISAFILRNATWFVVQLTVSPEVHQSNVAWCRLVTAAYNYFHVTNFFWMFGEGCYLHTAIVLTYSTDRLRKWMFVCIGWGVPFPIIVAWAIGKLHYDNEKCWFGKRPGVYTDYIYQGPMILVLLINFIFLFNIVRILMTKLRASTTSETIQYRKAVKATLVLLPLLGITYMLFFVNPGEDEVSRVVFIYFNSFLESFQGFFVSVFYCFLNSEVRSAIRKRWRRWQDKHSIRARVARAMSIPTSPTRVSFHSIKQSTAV
# value in nM; strip the unit string

Form field: Ki recorded for Cc1cc(C)c(Nc2nc(C)ccc2S(=O)(=O)c2ccc(OCCCC#N)cc2)c(C)c1 with UniProt:P35353 (enter value)
635

Likewise for NCCNC(=O)c1c2c(c3c4c(ncnc14)-c1ccccc1C3=O)N[C@H]1CCCC[C@@H]1N2 ?
200

Likewise for COc1ccccc1COc1ccc(S(=O)(=O)c2ccc(C)nc2Nc2c(C)cc(C)cc2C)cc1 ?
17

Likewise for Cc1cc(C)c(Nc2nc(C)ccc2S(=O)(=O)c2ccc(CO)cc2)c(C)c1 ?
1080

Likewise for Cc1ccc(S(=O)(=O)c2c(C)cc(C)nc2Nc2c(C)cc(C)cc2C)cc1 ?
1780

Likewise for COc1cccc(S(=O)(=O)c2ccc(C)nc2Nc2c(C)cc(C)cc2C)c1 ?
249

Likewise for CCN(CCCCF)c1nc(C)nc2c1c(C)c(C)n2-c1c(C)cc(C)cc1C ?
3.5

Likewise for CCCN(CCCCF)c1nc(C)nc2c1c(C)c(C)n2-c1c(C)cc(C)cc1C ?
0.91

Likewise for COc1cc(COc2ccc(S(=O)(=O)c3ccc(C)nc3Nc3c(C)cc(C)cc3C)cc2)cc(OC)c1 ?
34

Likewise for COc1ccc(S(=O)(=O)c2ccc(C)nc2Nc2c(C)cc(C)cc2C)cc1 ?
198

Likewise for Cc1cc(C)c(-n2c(C)c(C)c3c(N(CCCF)CC4CC4)nc(C)nc32)c(C)c1 ?
30

Likewise for Cc1cc(C)nc(N(C)c2ccccc2I)n1 ?
3650

Likewise for COC(=O)c1cccc(COc2ccc(S(=O)(=O)c3ccc(C)nc3Nc3c(C)cc(C)cc3C)cc2)c1 ?
49

Likewise for Cc1cccc(S(=O)(=O)c2c(C)cc(C)nc2Nc2c(C)cc(C)cc2C)c1 ?
5170

Likewise for Cc1ccc(N(C)c2nc(C)cc(C)n2)c(Br)c1 ?
1100

Likewise for CCCCN(CC)c1nc(C)nc2c1c(C)c(C)n2-c1c(C)cc(C)cc1C ?
1

Likewise for CCc1ccc(N(C)c2nc(C)cc(C)n2)c(Br)c1 ?
187

Likewise for Cc1cc(C)c(Nc2nc(C)ccc2S(=O)(=O)Cc2ccc(Cl)cc2)c(C)c1 ?
857

Likewise for Cc1cc(C)c(Nc2nc(C)ccc2S(=O)(=O)c2cccc(OCc3ccccc3)c2)c(C)c1 ?
132

Likewise for Cc1cc(C)c(Nc2nc(C)ccc2S(=O)(=O)c2ccc(OC(F)(F)F)cc2)c(C)c1 ?
268
